B1: PCDHGA10 (parent)
chain: FHELQMQVTASDSGDPPLSSNVSL

Variants of: B1
Test: protein stability index of a GFP-peptide fusion (GPS, HEK-293T) (PSI 1-6); higher = more stable;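 further: lentivirally expressed fusions sorted by FACS into six bins by GFP to DsRed ratio, PSI derived from sequencing read proportions per bin multiplied by bin number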
Settings: c terminus: a fixed tail appended
MEASURE NAME: protein stability index

Example entries begin here.
M6G :: 3.07
S11P :: 2.21
Q7Y :: 2.69
P16F :: 1.6
S11I :: 1.88

Challenge: Which measured protein stability index value corresponds to `E3L` ?
Response given: 1.92

Challenge: And for `F1E` ?
Response given: 5.2

Challenge: And for `H2E` ?
Response given: 4.28

Challenge: And for `Q5R` ?
Response given: 2.42

Challenge: And for `S20M` ?
Response given: 2.2

Challenge: And for `A10V` ?
Response given: 1.26
